Reference source: the supplement of paper PMC8671470

system: K-562; experiment: cell viability (% survival relative to DMSO control, bortezomib = 0%); higher = less cytotoxic; conditions: 1 nM; 72 h
reported-endpoint: cell viability (%)
Answers are plain numbers, in %.

- structure-as-smiles: "O=C(O)C(S)=Cc1c[nH]c2ccc(F)cc12"
  reported-endpoint: "cell viability"
  experimental-result: 91
- structure-as-smiles: "O=C1Nc2ccccc2/C1=C\\NCCc1ccc(O)c(O)c1"
  reported-endpoint: "cell viability"
  experimental-result: 90.1

As a next step, examine the molecule that follows.
Entry COc1c(C)c2c(c(O)c1C/C=C(\C)CCC(=O)O)C(=O)OC2 has what cell viability?
91.3

----------
Please provide measured IC50 (cell viability) for the entries that follow.
test system: HEL; conditions: 72 h

Worked examples, 4 compounds total:
- compound: "O=C1Nc2ccccc2/C1=C\\NCCc1ccc(O)c(O)c1"
  tgt: "HEL"
  experimental-result: "> 10 µM"
- compound: "O=C(COc1ccc(C(=O)c2ccccc2)cc1)NC1CCN(Cc2ccccc2)CC1"
  tgt: "HEL"
  experimental-result: "> 10 µM"
- compound: "c1ccc2c(c1)OCC(=C1NCCN1)O2"
  tgt: "HEL"
  experimental-result: "> 10 µM"
- compound: "C[C@H]1O[C@@H](O[C@H]2[C@@H](O)C[C@H](O[C@H]3[C@@H](O)C[C@H](O[C@H]4CC[C@@]5(C)[C@H](CC[C@@H]6[C@@H]5C[C@@H](O)[C@]5(C)[C@@H](C7=CC(=O)OC7)CC[C@]65O)C4)O[C@@H]3C)O[C@@H]2C)C[C@H](O)[C@@H]1O"
  tgt: "HEL"
  experimental-result: "0.102 µM"

Quick batch: IC50 (cell viability) for everything below.
1. CCOC(=O)[C@@]1(CCCCCCOc2ccc(Cl)cc2)CO1
2. C[C@]12CC[C@H](O)CC1=CC[C@@H]1[C@@H]2CC[C@]2(C)C(c3cccnc3)=CC[C@@H]12

1. > 10 µM
2. > 10 µM

Look at each compound and report its IC50 (cell viability).
1. CC(C(=O)O)C(=O)O [Methylmalonate]
2. O=C(O)CCc1ccc(NCc2cccc(Oc3ccccc3)c2)cc1
3. C1CCC(C(CC2CCCCN2)C2CCCCC2)CC1.O=C(O)/C=C\C(=O)O (centres undefined)

["> 10 µM", "> 10 µM", "3.23 µM"]

----------
Hi there, I'd appreciate the recorded cell viability for every entry that follows.
test system: HL-60; assay: cell viability (% survival relative to DMSO control, bortezomib = 0%); higher = less cytotoxic; conditions: 1000 nM; 72 h
Give bare numbers, in %.

For the 7 compounds below, give their cell viability values.
1. O=C(O)CC[C@H](NC(=O)c1ccc([N+](=O)[O-])cc1)C(=O)O [(S)-2-(4-Nitrobenzamido)pentanedioic acid]
2. Oc1cc(Cl)ccc1Oc1ccc(Cl)cc1Cl
3. CCOC(=O)N1c2ccc(C(F)(F)F)cc2[C@@H](N(Cc2cc(C(F)(F)F)cc(C(F)(F)F)c2)C(=O)OC)C[C@H]1CC
4. CC(C)Cc1sc(N)nc1-c1ccc(P(=O)(O)O)o1
5. CCOc1ccc(Cc2cc([C@@H]3O[C@H](CO)[C@@H](O)[C@H](O)[C@H]3O)ccc2Cl)cc1
6. c1ccc2c(c1)OCC(=C1NCCN1)O2
7. O=C(O)C(Cl)Cl [Dichloroacetate]

1: 83.6; 2: 106; 3: 107; 4: 105; 5: 94.4; 6: 97.2; 7: 109
